molecular target: Tyrosine-protein kinase ABL1 (Homo sapiens) (UniProt P00519); conditions: Compound concentration 20.0 uM
Sequence (P00519 whole entry): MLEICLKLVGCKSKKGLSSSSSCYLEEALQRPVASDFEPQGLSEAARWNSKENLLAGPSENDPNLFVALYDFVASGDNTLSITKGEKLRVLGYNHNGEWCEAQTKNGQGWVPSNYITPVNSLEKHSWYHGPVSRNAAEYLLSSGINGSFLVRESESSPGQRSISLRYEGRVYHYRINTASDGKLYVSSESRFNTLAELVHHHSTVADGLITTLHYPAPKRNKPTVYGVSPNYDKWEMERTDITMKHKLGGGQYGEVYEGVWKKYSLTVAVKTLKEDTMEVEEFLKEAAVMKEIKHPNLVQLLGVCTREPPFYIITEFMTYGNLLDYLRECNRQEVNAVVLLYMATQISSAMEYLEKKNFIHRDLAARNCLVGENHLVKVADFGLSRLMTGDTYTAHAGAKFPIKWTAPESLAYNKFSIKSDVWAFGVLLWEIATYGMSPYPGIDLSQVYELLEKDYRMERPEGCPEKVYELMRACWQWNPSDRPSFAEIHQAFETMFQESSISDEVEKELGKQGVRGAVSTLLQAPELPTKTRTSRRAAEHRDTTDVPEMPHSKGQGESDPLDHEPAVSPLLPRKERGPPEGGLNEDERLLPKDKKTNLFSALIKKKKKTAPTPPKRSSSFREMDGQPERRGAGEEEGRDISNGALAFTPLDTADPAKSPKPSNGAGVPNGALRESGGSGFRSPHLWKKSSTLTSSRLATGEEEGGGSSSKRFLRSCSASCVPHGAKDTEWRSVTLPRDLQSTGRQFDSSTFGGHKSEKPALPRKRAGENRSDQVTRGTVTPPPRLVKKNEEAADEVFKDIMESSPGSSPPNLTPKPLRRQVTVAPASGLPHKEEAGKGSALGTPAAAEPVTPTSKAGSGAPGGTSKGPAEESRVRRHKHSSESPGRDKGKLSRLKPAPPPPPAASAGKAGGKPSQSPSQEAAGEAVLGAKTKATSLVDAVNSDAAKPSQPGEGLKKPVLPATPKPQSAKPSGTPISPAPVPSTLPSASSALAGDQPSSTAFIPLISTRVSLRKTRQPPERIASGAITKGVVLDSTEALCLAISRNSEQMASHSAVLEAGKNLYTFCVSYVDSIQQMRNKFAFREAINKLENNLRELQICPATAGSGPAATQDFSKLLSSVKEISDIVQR
Description: Thermal Shift Assay. Domain: start/stop: S229-K512
recorded-metric: ΔTm (°C)

| molecule | target-or-test-system | recorded-metric | test-value |
| --- | --- | --- | --- |
| Nc1c[nH]c(=O)c2cc(-c3ccccc3)sc12 | Tyrosine-protein kinase ABL1 (Homo sapiens) (UniProt P00519) | ΔTm | 0.27 |
| O=C1Nc2ccccc2C2(CCN(CC(Cc3ccccc3)Nc3nc4ccc(F)cc4s3)CC2)N1 (stereo not given) | Tyrosine-protein kinase ABL1 (Homo sapiens) (UniProt P00519) | ΔTm | 0.77 |
| NS(=O)(=O)c1cc(-c2nnn[nH]2)c(NCc2cccs2)cc1Cl | Tyrosine-protein kinase ABL1 (Homo sapiens) (UniProt P00519) | ΔTm | 0.69 |
| COc1ncc(C)c(-c2ccc3c(c2)[nH]c(=O)c2cnn([C@H]4CCOC4)c23)c1C | Tyrosine-protein kinase ABL1 (Homo sapiens) (UniProt P00519) | ΔTm | 1.31 |
| C[C@H](N)C(=O)N1C[C@H](CCCB(O)O)[C@](N)(C(=O)O)C1 | Tyrosine-protein kinase ABL1 (Homo sapiens) (UniProt P00519) | ΔTm | 0.03 |
| NC(=O)c1cnc(N[C@@H]2CCCC[C@@H]2N)nc1Nc1cccc(-n2nccn2)c1 | Tyrosine-protein kinase ABL1 (Homo sapiens) (UniProt P00519) | ΔTm | 3.49 |
| CC(C)c1cc(C(=O)N2Cc3ccc(CN4CCN(C)CC4)cc3C2)c(O)cc1O | Tyrosine-protein kinase ABL1 (Homo sapiens) (UniProt P00519) | ΔTm | 1.01 |
| Cc1sc(C(=O)c2cncnc2N[C@@H]2C[C@H](COS(N)(=O)=O)[C@@H](O)C2)cc1[C@@H]1NCCc2ccc(Cl)cc21 | Tyrosine-protein kinase ABL1 (Homo sapiens) (UniProt P00519) | ΔTm | 0.03 |
| CCC1CCCCN1C(=O)n1ncc(C(O)(c2ccccc2)c2ccccc2)n1 (stereo not given) | Tyrosine-protein kinase ABL1 (Homo sapiens) (UniProt P00519) | ΔTm | -3.62 |
| CC#CCn1c(N2CCC[C@@H](N)C2)nc2c1c(=O)n(Cc1nc(C)c3ccccc3n1)c(=O)n2C | Tyrosine-protein kinase ABL1 (Homo sapiens) (UniProt P00519) | ΔTm | -0.11 |

====

target: Tyrosine-protein kinase ABL1 (Homo sapiens) (UniProt P00519); settings: Compound concentration 20.0 uM
Residues, ends and D or L forms follow the SMILES beside them. *: point of attachment. Cbz = O=C(OCc1ccccc1)*; CH2F = FC*
Friendly reminder: ΔTm below 0.5 °C is TRUE, at or above is FALSE.

| molecule | assigned-label |
| --- | --- |
| COC(=O)CC[C@H](NC(=O)[C@H](Cc1c[nH]c2ccccc12)NC(=O)OCc1ccccc1)C(=O)N[C@@H](Cc1cnc[nH]1)C(=O)N[C@@H](CC(=O)OC)C(=O)CF (Cbz-WE(OMe)HD(OMe)-CH2F) | FALSE |
| CC[C@H](C)[C@H](NC(=O)[C@H](CCC(=O)O)NC(=O)[C@@H](NC(C)=O)C(C)C)C(=O)N[C@H](C=O)CC(=O)O (Ac-VEID-aldehyde) | TRUE |
| CN1CC(=O)N2[C@H](c3ccc4c(c3)OCO4)c3[nH]c4ccccc4c3C[C@@H]2C1=O | TRUE |
| CCCCCCCCCCCCCC(=S)NCCCC[C@H](NC(=O)OCc1ccccc1)C(=O)Nc1ccccc1 | FALSE |
| Cn1cc(-c2ccncc2)c(-c2ccc(OCc3ccc4ccccc4n3)cc2)n1 | FALSE |
| CNC(=O)Cn1cc(-c2ccc3c(c2)[C@H](F)C[C@]32NC(=O)N(CC(=O)N(Cc3ccc(F)cc3)[C@@H](C)C(F)(F)F)C2=O)cn1 | FALSE |
| C=C(C)[C@@H](CC=C(C)C)C[C@@]12C[C@@H](CC=C(C)C)C(C)(C)[C@@](CC=C(C)C)(C(=O)C(C(=O)c3ccc(O)c(O)c3)=C1O)C2=O | FALSE |
| Cc1[nH]c2c(N3CCCCC3)c(-c3ccccc3)nn2c(=O)c1-c1ccc(O)cc1 | TRUE |
| CC(=O)O[C@]1(C(C)=O)CC[C@H]2[C@@H]3C=C(Cl)C4=CC(=O)[C@@H]5C[C@@H]5[C@]4(C)[C@H]3CC[C@@]21C | TRUE |
| CC(C)Oc1ccc2c(=O)[nH]c3sccc3c2c1 | FALSE |
| Cc1nc(-c2cnc(NC(C)C)n(C)c2=O)ccc1Oc1ccnc(-c2cnn(C)c2)c1 | FALSE |
| O=C(CCCCCCC(=O)Nc1ccc([C@H]2O[C@@H](CSc3nc(-c4ccccc4)c(-c4ccccc4)o3)C[C@@H](c3ccc(CO)cc3)O2)cc1)NO | TRUE |
| COc1ccc(/C=C/C(=O)NO)c(-c2ccc(-c3ccccc3)cc2)c1 | TRUE |
| CS(=O)(=O)c1ccc(-c2cnc(NCc3ccco3)n3cnnc23)cc1 | FALSE |
| N=C(N)SCc1ccc(CN2C(=O)C(=O)c3cc(Br)cc(Br)c32)cc1 | TRUE |
| COc1cc2c(NC3CCN(C)CC3)nc(N3CCCN(C)CC3)nc2cc1OCCCN(C)C | TRUE |
